All values here come from patent US20220396567A1.

system: HBV; assay: Cryopreserved primary human hepatocytes (PHH) HBV infection assay, extracellular HBsAg by CLIA; format: cell-based; details: Hepatitis B virus, Hepatocyte, 216 h; HBV-infected cryopreserved PHH; extracellular HBsAg at 9 days post-compound treatment; 4 parameter logistic curve fit
Give IC50 for every item shown.
Numbers only, in µM.

Please review the following examples before continuing.
N#Cc1c(NCC2CCC(F)(F)C2)nc(N)nc1-c1ccco1 (stereo not shown) ... 10.2
CC1(C)CC(CNc2nc(N)nc(-c3ccco3)c2C#N)CC(C)(C)O1 ... 1.67
Nc1nc(NCc2cccc(C(F)(F)F)c2)c(C(=O)N2CCC2)c(-c2ccco2)n1 ... 7.94

Can you give me IC50 for all of these, one by one?
1. N#Cc1c(NC2CCCC2)nc(N)nc1-c1ccco1
2. COCCNc1nc(NCc2cccc(C(F)(F)F)c2)c(C(=O)O)c(-c2ccco2)n1
3. CC(Nc1nc(N)nc(-c2ccco2)c1C#N)c1ccccc1 (stereo not shown)
4. CC(C)Oc1ccc(CNc2nc(N)nc(-c3ccco3)c2C#N)cc1Br

Found:
[8.68, 4.31, 5.93, 3.28]

Can you give me IC50 for all of these, one by one?
1. O=C(O)c1c(NCc2cccc(C(F)(F)F)c2)nc(N2CC3(CCC3)C2)nc1-c1ccco1
2. CCOC(=O)c1c(NCc2ccccc2Cl)ncnc1-c1ccco1

Found:
6.37
4.26

###

system: HBV; experiment: Cryopreserved primary human hepatocytes (PHH) HBV infection assay, extracellular HBsAg by CLIA; type: cell-based; conditions: Hepatitis B virus, Hepatocyte, 216 h; HBV-infected cryopreserved PHH; extracellular HBsAg at 9 days post-compound treatment; 4 parameter logistic curve fit
Decide using IC50 alone. Strictly below 3 µM: TRUE. Equal to or above 3 µM: FALSE.

The following molecules have reported results that may help.
COc1cccc(CN(C)c2nc(N)nc(-c3ccco3)c2C#N)c1 [Example 6] ... FALSE
COc1nc(NCc2cccc(C(F)(F)F)c2)c(C#N)c(-c2ccco2)n1 [Example 17] ... FALSE
CN(C)c1nc(NCC2CCCC2)c(C(=O)O)c(-c2ccco2)n1 [Example 43] ... FALSE
CCOC(=O)c1c(NCc2c(Br)ccc(OC)c2OC)nc(N)nc1-c1ccco1 [Example 44] ... FALSE
CC(Nc1cc(-c2ccco2)nc(N(C)C)n1)c1cccc(C(F)(F)F)c1 (stereo not shown) [Example 32] ... FALSE
CCNc1nc(NC2(c3cccc(C(F)(F)F)c3)CC2)c(C(=O)O)c(-c2ccco2)n1 [Example 60] ... FALSE
CCCCOc1nc(NCc2cccc(C(F)(F)F)c2)c(C#N)c(-c2ccco2)n1 [Example 19] ... TRUE
Nc1nc(NCc2cccc(C(F)(F)F)c2)c(C(=O)O)c(-c2ccco2)n1 [Example 38] ... TRUE
CC(C)CNc1nc(NCc2cccc(C(F)(F)F)c2)c(C(=O)O)c(-c2ccco2)n1 [Example 50] ... FALSE
Cc1ccccc1CNc1nc(N)nc(-c2ccco2)c1C(=O)O [Example 39] ... FALSE

Lookup: Threshold test, IC50 < 3 µM: CSc1nc(NCc2cccc(C(F)(F)F)c2)c(C#N)c(-c2ccco2)n1 [Example 11]
Found: TRUE

###

system: HBV; assay: Cryopreserved primary human hepatocytes (PHH) HBV infection assay, extracellular HBsAg by CLIA; type: cell-based; conditions: Hepatitis B virus, Hepatocyte, 216 h; HBV-infected cryopreserved PHH; extracellular HBsAg at 9 days post-compound treatment; 4 parameter logistic curve fit
RECORDED ENDPOINT: pIC50
Answers are plain numbers, as −log10 of the molar value.

Please review the following examples before continuing.
Nc1nc(NCc2ccc(Cl)cc2)c(C(=O)O)c(-c2ccco2)n1 ... 5.53
N#Cc1c(NCc2ccccc2Cl)ncnc1-c1ccco1 ... 5.51
N#Cc1c(NCc2cccc(C(F)(F)F)c2)nc(NCC(F)(F)F)nc1-c1ccco1 ... 5.41
CC(C)(C)OC(=O)N1CCN(C(=O)c2c(NCc3cccc(C(F)(F)F)c3)nc(N)nc2-c2ccco2)CC1 ... 5.02
N#Cc1c(NCc2ccccc2N)ncnc1-c1ccco1 ... 6.57

Can you give me pIC50 for all of these, one by one?
1. N#Cc1c(NCCc2ccccc2)ncnc1-c1ccco1
2. COCCNc1nc(NCc2cccc(Cl)c2)c(C(=O)O)c(-c2ccco2)n1
3. COCCNc1nc(NC2(c3cccc(C(F)(F)F)c3)CC2)c(C(=O)O)c(-c2ccco2)n1

Found:
1. 6.38
2. 5.43
3. 5.22

Can you give me pIC50 for all of these, one by one?
1. N#Cc1c(NCC2CCCCC2)nc(N)nc1-c1ccco1
2. Nc1nc(NCC2CCCC2)c(C(=O)O)c(-c2ccco2)n1
3. Nc1nc(NCc2cccc(C(F)(F)F)c2)c(C(=O)N2CCCCC2)c(-c2ccco2)n1

Found:
1: 5.44; 2: 5.49; 3: 5.18

###

test system: HBV; test: Cryopreserved primary human hepatocytes (PHH) HBV infection assay, extracellular HBsAg by CLIA; type: cell-based; conditions: Hepatitis B virus, Hepatocyte, 216 h; HBV-infected cryopreserved PHH; extracellular HBsAg at 9 days post-compound treatment; 4 parameter logistic curve fit
RECORDED ENDPOINT: pIC50
Give bare numbers, as −log10 of the molar value.

Please review the following examples before continuing.
N#Cc1c(NCC2CCCC2)ncnc1-c1ccco1 ... 5.58
COc1nc(NC(C)c2cccc(C(F)(F)F)c2)cc(-c2ccco2)n1 (stereo not drawn) ... 5.46
COc1c(NCc2cccc(C(F)(F)F)c2)nc(N)nc1-c1ccco1 ... 5.11
COCCCNc1nc(NCc2cccc(C(F)(F)F)c2)c(C(=O)O)c(-c2ccco2)n1 ... 5.02
CN(Cc1ccccc1)c1nc(N)nc(-c2ccco2)c1C(=O)O ... 5.28

Here is the next item to consider.
Lookup: What does the data say about its pIC50? Entry: CCOC(=O)c1c(NCc2c(Br)ccc(OC)c2OC)nc(C(C)C)nc1-c1ccco1
Found: 4.99
